Source of measurements: ChEMBL document CHEMBL4414600

- protocol-text: Tmax in rat at 23.6 mg/kg, po
- Assay type: ADME, organism-based
- test-context: in vivo
measurement-label: Tmax (h)

smi: CN(C)C/C=C/C(=O)Nc1cccc(-c2c(-c3ccccc3)oc3ncnc(N[C@H](CO)c4ccccc4)c23)c1
reported-value: 3.3

###

# reported pIC50; entries follow
- target-of-assay: Epidermal growth factor receptor (Homo sapiens, UniProt P00533, A763-Y764INSFHEA)
- Sequence (P00533 whole entry, looked up, stated change not applied): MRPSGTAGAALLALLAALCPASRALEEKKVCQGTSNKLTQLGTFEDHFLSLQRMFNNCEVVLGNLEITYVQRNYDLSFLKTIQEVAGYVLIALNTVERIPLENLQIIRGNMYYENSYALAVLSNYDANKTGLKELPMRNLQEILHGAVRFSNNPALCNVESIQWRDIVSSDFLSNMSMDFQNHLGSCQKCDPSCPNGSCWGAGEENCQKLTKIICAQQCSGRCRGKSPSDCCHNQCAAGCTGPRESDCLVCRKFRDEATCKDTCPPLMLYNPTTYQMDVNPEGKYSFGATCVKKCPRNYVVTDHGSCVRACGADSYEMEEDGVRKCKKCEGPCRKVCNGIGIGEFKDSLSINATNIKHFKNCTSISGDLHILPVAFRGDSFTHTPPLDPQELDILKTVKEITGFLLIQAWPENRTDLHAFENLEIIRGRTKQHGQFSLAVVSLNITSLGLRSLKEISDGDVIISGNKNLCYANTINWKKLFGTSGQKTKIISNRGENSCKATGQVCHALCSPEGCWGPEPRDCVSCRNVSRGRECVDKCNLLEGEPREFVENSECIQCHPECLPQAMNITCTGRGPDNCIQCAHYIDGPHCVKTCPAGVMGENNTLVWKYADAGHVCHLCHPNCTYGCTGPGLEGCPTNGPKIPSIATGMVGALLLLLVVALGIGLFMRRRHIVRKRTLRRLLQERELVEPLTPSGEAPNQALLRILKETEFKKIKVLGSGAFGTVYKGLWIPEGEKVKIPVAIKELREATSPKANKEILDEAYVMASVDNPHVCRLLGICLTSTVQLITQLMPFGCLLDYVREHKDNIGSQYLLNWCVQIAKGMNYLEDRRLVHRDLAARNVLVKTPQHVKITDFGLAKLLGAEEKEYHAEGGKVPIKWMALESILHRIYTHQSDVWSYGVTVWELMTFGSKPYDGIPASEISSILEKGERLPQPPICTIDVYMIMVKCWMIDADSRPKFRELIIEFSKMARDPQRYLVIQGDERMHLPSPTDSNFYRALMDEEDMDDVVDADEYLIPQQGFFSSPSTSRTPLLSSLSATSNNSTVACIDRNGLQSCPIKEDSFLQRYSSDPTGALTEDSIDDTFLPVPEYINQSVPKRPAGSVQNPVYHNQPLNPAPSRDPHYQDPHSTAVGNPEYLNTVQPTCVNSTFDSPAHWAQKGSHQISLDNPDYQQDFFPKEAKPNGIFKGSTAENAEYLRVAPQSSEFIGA
- protocol-text: Inhibition of GST-tagged human EGFR A763_Y764insFHEA mutant using poly(Glu, Tyr) 4:1 substrate incubated for 120 mins by kinase-Glo plus luminescent kinase assay
pIC50: −log10 of the molar value.
measurement-label: pIC50

smi: C=CC(=O)Nc1cccc(-c2c(-c3ccccc3)oc3ncnc(N[C@H](C)c4ccccc4)c23)c1
reported-value: 9.67
--
smi: C=CC(=O)Nc1cccc(-c2c(-c3ccccc3)sc3ncnc(N[C@H](CO)c4ccccc4)c23)c1
reported-value: 8.94

###

- protocol-text: AUC (0 to infinity) in rat at 20 mg/kg, po
- Type: ADME, organism-based
- Parameters: dose 20 mg/kg, route oral, time infinity
- test-context: in vivo

smi: C=CC(=O)Nc1cccc(-c2c(-c3ccccc3)oc3ncnc(N[C@H](CO)c4ccccc4)c23)c1
AUC(0-inf) / ng·h/mL: 303
--
smi: CN(C)C/C=C/C(=O)Nc1cc2c(Nc3ccc(F)c(Cl)c3)ncnc2cc1O[C@H]1CCOC1
AUC(0-inf) / ng·h/mL: 676

###

- target-of-assay: Epidermal growth factor receptor (Homo sapiens, UniProt P00533)
- Sequence (P00533 whole entry): as the sequence (P00533 whole entry, looked up, stated change not applied) above
IC50 less than 200 nM is 1; IC50 greater than or equal to 200 nM is -1.

smi: C=CC(=O)Nc1cccc(-c2c(C)sc3ncnc(N[C@H](CO)c4ccccc4)c23)c1
target-of-assay: Epidermal growth factor receptor (Homo sapiens, UniProt P00533)
assigned-category: 1

smi: C=CC(=O)Nc1cccc(-c2noc3ncnc(N[C@H](CO)c4ccccc4)c23)c1
target-of-assay: Epidermal growth factor receptor (Homo sapiens, UniProt P00533)
assigned-category: -1

smi: C=CC(=O)Nc1cccc(-c2c(C)oc3ncnc(N[C@H](CO)c4ccccc4)c23)c1
target-of-assay: Epidermal growth factor receptor (Homo sapiens, UniProt P00533)
assigned-category: 1

smi: C=CC(=O)Nc1cccc(-c2c(-c3ccccc3)oc3ncnc(N[C@H](C)c4ccccc4)c23)c1
target-of-assay: Epidermal growth factor receptor (Homo sapiens, UniProt P00533)
assigned-category: 1

smi: C=CC(=O)Nc1cccc(-c2coc3ncnc(N[C@H](CO)c4ccccc4)c23)c1
target-of-assay: Epidermal growth factor receptor (Homo sapiens, UniProt P00533)
assigned-category: 1

smi: CCN(C/C=C/C(=O)Nc1cccc(-c2c(-c3ccccc3)oc3ncnc(N[C@H](CO)c4ccccc4)c23)c1)CCO
target-of-assay: Epidermal growth factor receptor (Homo sapiens, UniProt P00533)
assigned-category: 1

smi: C/C=C/C(=O)Nc1cccc(-c2c(-c3ccccc3)oc3ncnc(N[C@H](CO)c4ccccc4)c23)c1
target-of-assay: Epidermal growth factor receptor (Homo sapiens, UniProt P00533)
assigned-category: -1

smi: CC#CC(=O)Nc1cccc(-c2c(-c3ccccc3)oc3ncnc(N[C@H](CO)c4ccccc4)c23)c1
target-of-assay: Epidermal growth factor receptor (Homo sapiens, UniProt P00533)
assigned-category: 1

smi: C=CS(=O)(=O)Nc1cccc(-c2c(-c3ccccc3)oc3ncnc(N[C@H](CO)c4ccccc4)c23)c1
target-of-assay: Epidermal growth factor receptor (Homo sapiens, UniProt P00533)
assigned-category: -1

smi: C=CC(=O)Nc1cccc(-c2c(-c3ccccc3)sc3ncnc(N[C@H](CO)c4ccccc4)c23)c1
target-of-assay: Epidermal growth factor receptor (Homo sapiens, UniProt P00533)
assigned-category: 1

###

- target-of-assay: Epidermal growth factor receptor (Homo sapiens, UniProt P00533, L858R/T790M)
- Sequence (P00533 25-1210 T790M/L858R limits assumed): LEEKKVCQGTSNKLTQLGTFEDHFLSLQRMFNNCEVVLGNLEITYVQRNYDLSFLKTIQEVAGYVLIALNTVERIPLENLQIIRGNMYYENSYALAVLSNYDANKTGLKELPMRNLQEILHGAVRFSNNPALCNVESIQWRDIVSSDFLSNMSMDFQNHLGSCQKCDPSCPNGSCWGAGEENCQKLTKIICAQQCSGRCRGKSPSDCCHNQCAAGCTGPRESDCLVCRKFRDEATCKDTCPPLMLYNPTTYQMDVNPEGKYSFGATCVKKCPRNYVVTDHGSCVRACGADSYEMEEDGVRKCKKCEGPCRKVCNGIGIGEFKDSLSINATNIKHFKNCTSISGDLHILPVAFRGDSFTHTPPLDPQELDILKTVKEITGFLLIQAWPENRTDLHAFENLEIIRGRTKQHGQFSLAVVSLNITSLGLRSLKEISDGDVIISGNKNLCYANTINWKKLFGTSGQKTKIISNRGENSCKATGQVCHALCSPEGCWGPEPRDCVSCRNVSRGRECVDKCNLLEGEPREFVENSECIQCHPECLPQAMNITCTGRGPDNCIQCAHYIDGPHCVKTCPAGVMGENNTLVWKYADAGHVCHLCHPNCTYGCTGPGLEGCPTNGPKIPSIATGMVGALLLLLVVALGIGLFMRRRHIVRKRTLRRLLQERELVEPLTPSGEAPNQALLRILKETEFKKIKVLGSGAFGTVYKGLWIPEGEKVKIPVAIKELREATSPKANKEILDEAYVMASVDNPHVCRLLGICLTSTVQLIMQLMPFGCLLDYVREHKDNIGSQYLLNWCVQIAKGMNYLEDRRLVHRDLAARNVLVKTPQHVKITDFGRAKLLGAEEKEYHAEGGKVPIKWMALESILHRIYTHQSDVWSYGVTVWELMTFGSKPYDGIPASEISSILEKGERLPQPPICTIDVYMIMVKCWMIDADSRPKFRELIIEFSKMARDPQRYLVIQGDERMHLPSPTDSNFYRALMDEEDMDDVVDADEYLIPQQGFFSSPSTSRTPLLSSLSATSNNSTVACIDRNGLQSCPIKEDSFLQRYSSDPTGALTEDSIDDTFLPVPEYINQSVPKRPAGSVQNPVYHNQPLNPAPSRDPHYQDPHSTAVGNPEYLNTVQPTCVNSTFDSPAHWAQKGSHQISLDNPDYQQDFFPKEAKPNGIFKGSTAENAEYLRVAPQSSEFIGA
Measured IC50 accompanies every entry in the list below.
measurement-label: IC50

smi: O=C(O)/C=C/C(=O)Nc1cccc(-c2c(-c3ccccc3)oc3ncnc(N[C@H](CO)c4ccccc4)c23)c1
target-of-assay: Epidermal growth factor receptor (Homo sapiens, UniProt P00533, L858R/T790M)
measurement-label: IC50
reported-value: > 10000 nM
--
smi: C=CS(=O)(=O)Nc1cccc(-c2c(-c3ccccc3)oc3ncnc(N[C@H](CO)c4ccccc4)c23)c1
target-of-assay: Epidermal growth factor receptor (Homo sapiens, UniProt P00533, L858R/T790M)
measurement-label: IC50
reported-value: 2460 nM
--
smi: C=CC(=O)Nc1cccc(-c2csc3ncnc(N[C@H](CO)c4ccccc4)c23)c1
target-of-assay: Epidermal growth factor receptor (Homo sapiens, UniProt P00533, L858R/T790M)
measurement-label: IC50
reported-value: 2320 nM
--
smi: C/C=C/C(=O)Nc1cccc(-c2c(-c3ccccc3)oc3ncnc(N[C@H](CO)c4ccccc4)c23)c1
target-of-assay: Epidermal growth factor receptor (Homo sapiens, UniProt P00533, L858R/T790M)
measurement-label: IC50
reported-value: > 10000 nM

###

bioavailability values, listed per item
- protocol-text: Oral bioavailability in rat at 20 mg/kg
- Format: ADME, organism-based
- test-context: in vivo
measurement-label: bioavailability

smi: CN(C)C/C=C/C(=O)Nc1cc2c(Nc3ccc(F)c(Cl)c3)ncnc2cc1O[C@H]1CCOC1
reported-value: 15.9%
--
smi: C=CC(=O)Nc1cccc(-c2c(-c3ccccc3)oc3ncnc(N[C@H](CO)c4ccccc4)c23)c1
reported-value: 5.5%

###

- protocol-text: Half life in rat at 5 mg/kg, iv
- Assay type: ADME, organism-based
- test-context: in vivo
Below, each entry is listed alongside its reported half-life.

smi: CN(C)C/C=C/C(=O)Nc1cc2c(Nc3ccc(F)c(Cl)c3)ncnc2cc1O[C@H]1CCOC1
half-life / h: 5.7
--
smi: C=CC(=O)Nc1cccc(-c2c(-c3ccccc3)oc3ncnc(N[C@H](CO)c4ccccc4)c23)c1
half-life / h: 0.5

###

Here, each record is paired with measured CC50 data.
- System: HCC827
- protocol-text: Cytotoxicity in human HCC827 cells assessed as reduction in cell viability incubated for 96 hrs by MTS method
- Type: functional
- test-context: Homo sapiens, HCC827, 96 h

smi: CC(C)C/C=C/C(=O)Nc1cccc(-c2c(-c3ccccc3)oc3ncnc(N[C@H](CO)c4ccccc4)c23)c1
u: µM
CC50: 0.679
//
smi: C=CC(=O)Nc1cccc(-c2c(-c3ccccc3OC)oc3ncnc(N[C@H](CO)c4ccccc4)c23)c1
u: µM
CC50: 0.034
//
smi: O=C(/C=C/CN1CCOCC1)Nc1cccc(-c2c(-c3ccccc3)oc3ncnc(N[C@H](CO)c4ccccc4)c23)c1
u: µM
CC50: 0.017
//
smi: CCN(C/C=C/C(=O)Nc1cccc(-c2c(-c3ccccc3)oc3ncnc(N[C@H](CO)c4ccccc4)c23)c1)CCO
u: µM
CC50: 0.019
//
smi: CCN(CC)C/C=C/C(=O)Nc1cccc(-c2c(-c3ccccc3)oc3ncnc(N[C@H](CO)c4ccccc4)c23)c1
u: µM
CC50: 0.062
//
smi: C=CC(=O)Nc1cccc(-c2csc3ncnc(N[C@H](CO)c4ccccc4)c23)c1
u: µM
CC50: 0.056
//
smi: C=CC(=O)Nc1cccc(-c2noc3ncnc(N[C@H](CO)c4ccccc4)c23)c1
u: µM
CC50: 0.105
//
smi: C=CC(=O)Nc1cccc(-c2c(C)sc3ncnc(N[C@H](CO)c4ccccc4)c23)c1
u: µM
CC50: 0.035
//
smi: C=CS(=O)(=O)Nc1cccc(-c2c(-c3ccccc3)oc3ncnc(N[C@H](CO)c4ccccc4)c23)c1
u: µM
CC50: 2.71
//
smi: CC#CC(=O)Nc1cccc(-c2c(-c3ccccc3)oc3ncnc(N[C@H](CO)c4ccccc4)c23)c1
u: µM
CC50: 0.182
//
smi: C=CC(=O)Nc1cccc(-c2c(-c3ccccc3)sc3ncnc(N[C@H](CO)c4ccccc4)c23)c1
u: µM
CC50: 0.146
//
smi: O=C(/C=C/c1ccccc1)Nc1cccc(-c2c(-c3ccccc3)oc3ncnc(N[C@H](CO)c4ccccc4)c23)c1
u: µM
CC50: 1.78
//
smi: C/C=C/C(=O)Nc1cccc(-c2c(-c3ccccc3)oc3ncnc(N[C@H](CO)c4ccccc4)c23)c1
u: µM
CC50: 0.307

###

Entries and their CC50 values follow.
- System: HCC827
- protocol-text: Cytotoxicity in human HCC827 cells assessed as reduction in cell viability incubated for 96 hrs by MTS method
- Type: functional
- test-context: Homo sapiens, HCC827, 96 h
measurement-label: CC50 (nM)

compound: CN(C)C/C=C/C(=O)Nc1cc2c(Nc3ccc(F)c(Cl)c3)ncnc2cc1O[C@H]1CCOC1 [AFATINIB]
target-of-assay: HCC827
measurement-label: CC50
reported-value: 14
//
compound: C=CC(=O)Nc1cccc(-c2coc3ncnc(N[C@H](CO)c4ccccc4)c23)c1
target-of-assay: HCC827
measurement-label: CC50
reported-value: 744
//
compound: C=CC(=O)Nc1cccc(-c2c(-c3ccccc3)oc3ncnc(N[C@H](C)c4ccccc4)c23)c1
target-of-assay: HCC827
measurement-label: CC50
reported-value: 58
//
compound: C=CC(=O)Nc1cccc(-c2c(C)oc3ncnc(N[C@H](CO)c4ccccc4)c23)c1
target-of-assay: HCC827
measurement-label: CC50
reported-value: 46
//
compound: OC[C@@H](Nc1ncnc2oc(-c3ccccc3)c(-c3ccccc3)c12)c1ccccc1
target-of-assay: HCC827
measurement-label: CC50
reported-value: 518
//
compound: C=CC(=O)Nc1cccc(-c2c(Cl)sc3ncnc(N[C@H](CO)c4ccccc4)c23)c1
target-of-assay: HCC827
measurement-label: CC50
reported-value: 51
//
compound: CCOC(=O)/C=C/C(=O)Nc1cccc(-c2c(-c3ccccc3)oc3ncnc(N[C@H](CO)c4ccccc4)c23)c1
target-of-assay: HCC827
measurement-label: CC50
reported-value: 516
//
compound: O=C(O)/C=C/C(=O)Nc1cccc(-c2c(-c3ccccc3)oc3ncnc(N[C@H](CO)c4ccccc4)c23)c1
target-of-assay: HCC827
measurement-label: CC50
reported-value: 4120
